system: MS2 coat protein; test: apparent KD of MS2 coat protein; designed switch direction (-1 OFF switch, 1 ON switch): 1; higher = weaker reporter binding; conditions: input ligand: microRNA oligo, concentration not stated
Measure: apparent KD of MS2 coat protein (nM)
Hi! Could you send only the number? It should be in nM, unit omitted.

Input line: What measured apparent KD of MS2 coat protein goes with UGUUUGUUGUGAGGAUAUACGUACACCCUACAUGAGGAUCACCCAUGUUGUUCCCUUGAUUGUUGGUAGAAGGCACUUGGUUAU [JR_SSNG2_Sub049] (Eterna round: R96, puzzle: Same State NG 2) ?
Output line: 122

Input line: Look up apparent KD of MS2 coat protein: UGUUGUUACGCAGGAUAUGGUCACAUGAGGAUCACCCAUGUAUUGUCGAUGCUAUGUGGAUUUGAUCAGAAGGGCGGGUUAACA [SameState NG2 #100] (Eterna round: R96, puzzle: Same State NG 2)
Output line: 88.9

Input line: I am curious: what apparent KD of MS2 coat protein value has been reported for UAAGUCAUGUAAGGAUAUGCAGCCGAAACGGCUGCAGAAGGUACUAUAAUUACAUGAGGAUCACCCAUGUUAUAAAAUUUAAAU [Mat - Same State NG 1 - JL mod - D78] (Eterna round: R96, puzzle: Same State NG 1) ?
Output line: 43.2

Input line: Requested read-out: apparent KD of MS2 coat protein. Entry: GGGUAGAUUUGAGGAUAUCCUUAACCAACAUGAGGAUCACCCAUGUCCAAAAGAGUUCAUUUACCGGAGAAGGCAGAUGCACCC [Eternabot solution 50] (Eterna round: R96, puzzle: Same State NG 2)
Output line: 61.4

Input line: Dear colleague, I am looking for the recorded apparent KD of MS2 coat protein of the following sequence: UGUUGUAUUACAGGAUAUCUAUUAGUUUCAUUUAGAGAAGGGUAUUCACAUGAGGAUCACCCAUGUAUAUACGAGGAAGUUGUG [JMF's solution 95] (Eterna round: R96, puzzle: Same State NG 1)
Output line: 44.4

Input line: Requested read-out: apparent KD of MS2 coat protein. Entry: UGUUGUAUUACAGGAUAUCUAUGAUUUUUGUUUAGAGAAGGGUAUUCACAUGAGGAUCACCCAUGUAUAUACGAGGAAGUUGUG [JMF's solution 66] (Eterna round: R96, puzzle: Same State NG 1)
Output line: 42.4

Input line: Which apparent KD of MS2 coat protein reading was recorded for the sequence CUUUUUAAUGCAGGAUAUGAUCAACAUGAGGAUCACCCAUGUGGUGUUGUGAGUAAGGAGAGUGAUCAGAAGGGCAUCUUCUCA [SS-NG2-LRO05] (Eterna round: R96, puzzle: Same State NG 2) ?
Output line: 133

Input line: What value of apparent KD of MS2 coat protein has been recorded for this entry: AAAAUGGCAUGUUACAUGAGGAUCACCCAUGUGCCGUCAACUGAGGAUAUGGUGCUGUAGAAGAAUCAGAAGGUAGUCAUUUAA [AK SSNG3-V2-27] (Eterna round: R96, puzzle: Same State NG 3)
Output line: 15.8

Input line: For the sequence AUAGUUGCCGAAGGAUAUGAUGAGGAUCACCCAUCAGAAGGUCGGCUAUUGGGUGGACAUGAGGAUCACCCGUGUUCUUUGGUC (Eterna round: R96, puzzle: Same State NG 1) , what apparent KD of MS2 coat protein is on record?
Output line: 22.5

====

tested on: MS2 coat protein; test: apparent KD of MS2 coat protein; designed switch direction (-1 OFF switch, 1 ON switch): -1; higher = weaker reporter binding; conditions: input ligand: none
Reported apparent KD of MS2 coat protein is given for each of the following sequences.
Kindly provide the numeric value in nM only, without the unit symbol.

See these solved cases before continuing.
GAAAACGCAGAGGAUAUUUCAGAUCAAAGCUGCAAAGAAGGCUGCACAUGAGGAUCACCCAUGUGGUCUCAAAA [Mod of Quesina 3 - Jieux - Exclusion 6] (Eterna round: R97, puzzle: Exclusion 6)	33.6
GCGUUUUGGUGAGGAUAUCGGCCCUAAACCGGGCAACAUGAGGAUCACCCAUGUACGUGAUCCUGCGAGAAGGCACCGAUUAUA [Digeerle] (Eterna round: R96, puzzle: Exclusion NG 2)	123
ACUUACUGAGGAUAUACAUAGAUUUACAUGAGGAUCACCCAUGUUCCUCUUUGUAUAAAUGUAGAAGGCAGAAGAU [Mat - Exclusion 5 - JL Mod - D59] (Eterna round: R97, puzzle: Exclusion 5)	96.5
CCAAGCUUGUUCAUUAUCCACAUGAGGAUCACCCAUGUCUUGGCAAUUAUGACCUGCCCGUCAGGAGCUCGUCUUAU [Sensor-V1 #37] (Eterna round: R97, puzzle: Sensor, turn-off variant 1)	346

Alright, here's another sequence for you.
Input line: Please give the measured apparent KD of MS2 coat protein for this sequence: UGUUGUUACGCAGGAUAUGAGGAUCACCCAUAGAAGGAUAACGAAAGUGAAGGUCUGAGGAUUACCCAGAAGGGCGGGUUAACA [pwkr exNG2 2xF5 2xFMN.2] (Eterna round: R96, puzzle: Exclusion NG 2)
Output line: 92

====

system: MS2 coat protein; assay: apparent KD of MS2 coat protein; higher = weaker reporter binding; details: Eterna round: R107; input ligand: theophylline 2 mM
Decide using apparent KD of MS2 coat protein: a value greater than or equal to 30 nM is Condition met, a smaller one is Condition not met.

CCGAACAUGAGGAUCACCCAUGUUAGGGAUACCAGCUCAGACAUGGGCCCUUGGCAGCUCUAUAGCUGACGAAAGUCAGCAUCGG [#15 SameState-TheophyllineA]	Condition not met
CGACGAGACCUGGAUACCAGCGACAUGAGGAUCACCCAUGUAUGUGGAUCAGCCAUGAUAUGCCCUUGGCAGCCACCGAGGUCGG [PPPMULLIN]	Condition met
CCGGAGACCUCGGCCGCCACUCUCCAUGAGGAUCUCCCAUGUAACAUGAGGAUCACCCAUGUGCUGAGGACCGGGAGGUCCUCCU [Same State Tryptophan B GF 20]	Condition not met
ACAUGAGGAUCACCCAUGUUGAGCACAGAAGGAGCGUGAUUAAGCACAGGUAGGUCGCUGUACUUAUCGAGCGUUAGCUCGAUAC [JR_Nu_SSArginiA_Sub030]	Condition not met
GUAUUCAUGACGGCCGCCACUGCAAGCCUCCUCAUGGCAGAUUGACAUGAGGAUCACCCAUGUCUCAGGACCGGGUCUGGCAUCC [theeternabot_sameState_MS2_Trp_B_43]	Condition met

Now consider a different sequence.
Input line: State whether the measured apparent KD of MS2 coat protein reaches 30 nM, counting equality as reaching it, for AUCCAUAGCCGAAGGAGCGCAGUAGGAUGACAUGAGGAUCACCCAUGUGUGUGAUGUGGAUUGCAGGUAGGUCGCGGAGUGGGAU [Exclusion - Arginine B (Freestyle 6)]
Output line: Condition met

====

test system: K4 kissing-loop RNA reporter; experiment: apparent KD of K4 kissing-loop reporter; higher = weaker reporter binding; details: Eterna round: R107; input ligand: theophylline 20 uM;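 also: bound reporter read as fluorescence of individual clusters on recovered sequencing chips by microscopy, with normalized cluster intensities fitted with a binding model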
Given measured apparent KD of K4 kissing-loop reporter, output True if it is greater than or equal to 300 nM and False if not.

AGUGAUGUAUGGCGGUGUGUCGCUUAAAAUCAGGAUAUAUAAACAAAUAGAAGGGAUGGCGGAGUGAUGUUCCGCCGGCCGCCAU [FMN A Exl V2]	False
UUUAAACAUAGUGAUGUUAUGUAACAAUGACGAGGACCGGUACGGCCGCCACUCGAGAGAGAUAAUGAUAAAAUAAAUAAUUUUC [#09 K4 Tryptophan A Same State]	False
UGUACCGAGUCAGGAUAUACCGUCGAAAGACGAAAUGGAGUGAUGUUCCUUAAACUGCGAAAGCAGGUAGAAGGGACUUGGUACU [FmnBS 30 #SwitchBubble #StaticStem #DoubleMagnetSystem]	False
CAUACGCAUGGAGGAUAUGAGAUUACUCAUAUCAUUUAAUAUUCUCAGUGAUGUUGAGAUUUAGACUCAGAAGGCCAUGUGUAUG [Ex FMN B 13]	True
UUGUUUGGUUGAGAGGUUGGGCGAGAUGAUACCAGUAUAGUAUAGUACCCUUGGCAGCAUAGGAGAGAUAUAGUGAUGUUGUAUG [SSTheophA.V]	True
AGACUUCACCGAAGGAGCGACGUGGCCUAGUGAUGUUAGGCACGAGAGAAAUCUCGUGUACGUCAGGUAGGUCGCGGUGAAGUCA [Omei KL Arginine B SS C v7]	True
UGUACCGAGUCAGGAUAUAGCGUCGAAAGACGAAAUGGAGUGAUGUUCCUUAAACUGCGAAAGCAGCUAGAAGGGACUUGGUACU [FmnBS 28 #SwitchBubble #StaticStem #DoubleMagnetSystem]	False
AGUUUAGAGUGACUCGAUAAGAGUCACAAACGAGGACCGGUACGGCCGCCACUCGAAAUAACGAGAGUGAUGUUCUCGCUGGGCA [FiskerMod 3 - Jieux - Same State Tryptophan A]	True

Input line: Given AGGUUUUGAUUAGGAUAUGCACUGACGACGAGAAUAUAGUGAUGUUAUAUAAUACGAAUUAGUAGAGUAGAAGGGAUUGAGGUUU [SSFMNB.X] , state whether its apparent KD of K4 kissing-loop reporter is at least 300 nM.
Output line: True

Input line: Decide: apparent KD of K4 kissing-loop reporter of `GCCGUACGCAUGGAUACCAGCACUCGUUGAGUGAUGUUCACGAGGUGGUAUUCGACGGGCUGCCCUUGGCAGCCAUGCGUACGGC` >= 300 nM?
Output line: False

Input line: Evaluate GGUUGAAGCACCCGGAGUGAUGUUCCGGAUACCAGCAAACCAACUUGCCCUUGGCAGCCGUAUAGCGUCCGGUGGGCCGAGCAUA [Beisadi] : apparent KD of K4 kissing-loop reporter at minimum 300 nM?
Output line: False

Input line: Item UGUCAUUGGUCGGCCGCCACUUCAAGGUCAAAGACCAGAGUGAUGUUCUUGCACAAAGUGCUUAGAAGGACCGGGACCGAUGACU [TrypBS 13 #SwitchBubble #K4Middle] with apparent KD of K4 kissing-loop reporter of 300 nM or above?
Output line: True
